All values here come from patent US10835542B2.

- PROTOCOL DETAILS: Intra-pulmonary (ELF, AC/AM by BAL) and plasma PK after multiple iv doses in healthy adult subjects
- Type: in vivo, human
- DETAILS: human, plasma, intravenous, 100 mg, AUC0-24 based on mean concentration at each BAL sampling time; read-out: Plasma AUCmean
READOUT TYPE: AUC (ng·h/mL)
Enter your answer as a number in ng·h/mL; do not include the unit.

[Q] I am curious: what AUC value has been reported for CN(C)c1cc(CNCC(C)(C)C)c(O)c2c1C[C@H]1C[C@H]3[C@H](N(C)C)C(O)=C(C(N)=O)C(=O)[C@@]3(O)C(O)=C1C2=O [Compound 1] ?
[A] 11700
